Tested on: HEL92.1.7
Experiment: Cell growth inhibition assay, blood cancer cell line HEL92.1.7
Type: cell-based
Conditions: Homo sapiens, HEL 92.1.7, HEL92.1.7 blood cancer cell line
recordedMetric: IC50

q: Form field: IC50 recorded for CC(C)Oc1cc(OC(F)(F)F)cc(C(C)(C)c2cc(Cl)cc(N(CCN3CCOCC3)C(=O)c3cc4cc(N(CCN5CCOCC5)S(C)(=O)=O)c(F)cc4s3)c2)c1 [Example 218] with HEL92.1.7 (enter value)
a: > 1.1 µM

q: Request: CN(C)S(=O)(=O)N1CCN(Cc2cc(OC(F)(F)C(F)F)cc(C(C)(C)c3cc(Br)cc(NC(=O)c4cc5cc(NS(C)(=O)=O)ccc5s4)c3)c2)CC1 [Example 139]
a: 0.69 µM

q: Request: CC(C)(c1cccc(CN2CCOCC2)c1)c1cc(Br)cc(NC(=O)c2cc3cc(NS(C)(=O)=O)ccc3s2)c1 [Example 50]
a: 0.83 µM

====

Tested on: LNCaP
Assay: Cell growth inhibition assay, prostate cancer cell line LNCaP (medium with 10 ng/mL IL-6)
Assay type: cell-based
Conditions: Homo sapiens, medium supplemented with 10 ng/mL of IL-6, 10,000 cells/well
Give IC50 for every item shown.
Quick reminder: number only, in µM, skip the unit.

q: Fill blank: measured IC50 of the compound `COc1cc(NC(=O)c2cc3ccc(NS(C)(=O)=O)cc3[nH]2)cc(C(C)(C)c2cccc(OC(F)(F)F)c2)c1` is ____.
a: 0.82

q: Request: `COc1cc(OC(F)(F)F)cc(C(C)(C)c2cc(Cl)cc(NC(=O)c3cc4cc(NS(C)(=O)=O)cnc4s3)c2)c1`
a: 0.16

q: Request: `COc1cc(OC(F)(F)F)cc(C(C)(C)c2cc(Br)cc(NC(=O)c3cc4cc(NS(C)(=O)=O)ccc4s3)c2)c1`
a: 0.21

q: Request: `CS(=O)(=O)Nc1ccc2sc(C(=O)Nc3cc(Br)cc(S(=O)(=O)N4CCc5ccc(F)cc5C4)c3)cc2c1`
a: 1.6

q: Request: `CS(=O)(=O)Nc1ccc2cc(C(=O)Nc3cc(C(F)(F)F)cc(S(=O)(=O)c4cccc(OC(F)(F)F)c4)c3)[nH]c2c1`
a: 2.6

q: Request: `COc1cc(NC(=O)c2cc3ccc(N(C)S(C)(=O)=O)cc3n2C)cc(-c2ccc(F)cc2F)c1`
a: 7.2

q: Request: `COc1cc(OC(F)(F)F)cc(C(C)(C)c2cc(Br)cc(NC(=O)c3cc4ccc(NS(C)(=O)=O)cc4[nH]3)c2)c1`
a: 0.48

q: Request: `CS(=O)(=O)Nc1cc2cc(C(=O)Nc3cc(Cl)cc(Oc4ccc(OC(F)(F)F)cc4)c3)sc2cc1Cl`
a: 0.01

q: Request: `CN(c1ccc2cc(C(=O)Nc3cc(Br)cc(-c4ccc(F)cc4F)c3)[nH]c2c1)S(C)(=O)=O`
a: 5

q: Request: `CS(=O)(=O)Nc1cc2cc(C(=O)Nc3cc(Cl)cc(Oc4ccc(Cl)s4)c3)sc2cc1Cl`
a: 0.015

====

Test system: DU-145
Assay: Cell growth inhibition assay, prostate cancer cell line DU-145
Assay type: cell-based
Conditions: Homo sapiens, DU-145 prostate cancer cell line
Give log10 IC50 for every item shown.
Lab note - IC50 converted to log10 from values in µM.

q: Form field: log10 IC50 recorded for `CS(=O)(=O)Nc1ccc2sc(C(=O)Nc3cc(Cl)cc(-c4ccsc4)c3)cc2c1` with DU-145 (enter value)
a: -1.38

q: Request: `CC(C)(c1cc(Cl)cc(NC(=O)c2cc3cc(NS(C)(=O)=O)ccc3s2)c1)c1cc(OC(F)(F)F)cc(OC(F)(F)C(F)F)c1`
a: -2.00

q: Request: `CC(C)Oc1cc(OC(F)(F)F)cc(C(C)(C)c2cc(Cl)cc(NC(=O)c3cc4nc(NS(C)(=O)=O)ccc4s3)c2)c1`
a: -0.92

q: Request: `CC(C)(c1cc(F)cc(NC(=O)c2cc3cc(NS(C)(=O)=O)ccc3s2)c1)c1cc(OC(F)(F)F)cc(OC(F)(F)C(F)F)c1`
a: -2.15

q: Request: `COc1cc(OC(F)(F)F)cc(C(C)(C)c2cc(NC(=O)c3cc4cc(NS(C)(=O)=O)ccc4s3)cc(Cl)n2)c1`
a: -1.52

q: Request: `CS(=O)(=O)Nc1ccc2sc(C(=O)Nc3cc(Cl)cc(Oc4ccc(Cl)c(F)c4)c3)cc2c1`
a: -1.20

====

Tested on: DU-145
Assay: Cell growth inhibition assay, prostate cancer cell line DU-145
Assay type: cell-based
Details: Homo sapiens, DU-145 prostate cancer cell line
recordedMetric: IC50

q: Fill blank: measured IC50 of the compound `CC(C)COc1cc(OC(F)(F)F)cc(C(C)(C)c2cc(Cl)cc(NC(=O)c3cc4cc(NS(C)(=O)=O)ccc4s3)c2)c1` is ____.
a: 0.006 µM

q: Request: `CC(C)Oc1cc(CN2CCOCC2)cc(C(C)(C)c2cc(Br)cc(NC(=O)c3cc4cc(NS(C)(=O)=O)ccc4s3)c2)c1`
a: 0.049 µM

q: Request: `CC(=O)N1CCC(S(=O)(=O)Nc2ccc3sc(C(=O)Nc4cc(Cl)cc(C(C)(C)c5cc(OC(C)C)cc(OC(F)(F)F)c5)c4)cc3c2)CC1`
a: 0.051 µM

q: Request: COc1cc(OC(F)(F)F)cc(C(C)(C)c2cc(Br)cc(NC(=O)c3cc4cc(NS(C)(=O)=O)ncc4[nH]3)c2)c1 [Example 99, 2,2,2-trifluoroacetate]
a: 0.8 µM

q: Request: `COc1cc(OC(F)(F)F)cc(C(C)(C)c2cc(Cl)cc(NC(=O)c3cc4cc(NS(C)(=O)=O)cnc4s3)c2)c1`
a: 0.047 µM

q: Request: C[S+]([O-])c1ccc(C(C)(C)c2cc(Cl)cc(NC(=O)c3cc4cc(NS(C)(=O)=O)ccc4s3)c2)cc1 (stereo not drawn)
a: > 1.1 µM

====

Give IC50 for every item shown.
Tested on: DU-145
Assay: Cell growth inhibition assay, prostate cancer cell line DU-145
Assay type: cell-based
Settings: Homo sapiens, DU-145 prostate cancer cell line
Quick reminder: number only, in µM, skip the unit.

q: Fill blank: measured IC50 of the compound `COc1cc(F)cc(C(C)(C)c2cc(Cl)cc(NC(=O)c3cc4cc(NS(C)(=O)=O)ccc4s3)c2)c1` is ____.
a: 0.042

q: Request: `CC(C)(c1ccc(Cl)cc1)c1cc(Cl)cc(NC(=O)c2cc3cc(NS(C)(=O)=O)c(Cl)cc3s2)c1`
a: 0.005

q: Request: `CC(C)Oc1cc(CN2CCN(S(=O)(=O)N(C)C)CC2)cc(C(C)(C)c2cc(Cl)cc(NC(=O)c3cc4cc(NS(C)(=O)=O)ccc4s3)c2)c1`
a: 0.1

q: Request: `CC(C)Oc1cc(OC(F)(F)F)cc(C(C)(C)c2cc(Cl)cc(NC(=O)c3cc4c(F)c(NS(C)(=O)=O)ccc4s3)c2)c1`
a: 0.021

====

Test system: LNCaP
Test: Cell growth inhibition assay, prostate cancer cell line LNCaP (medium with 10 ng/mL IL-6)
Format: cell-based
Conditions: Homo sapiens, medium supplemented with 10 ng/mL of IL-6, 10,000 cells/well
Give IC50 for every item shown.

q: Fill blank: measured IC50 of the compound `CS(=O)(=O)Nc1ccc2cc(C(=O)Nc3cc(OCC#N)cc(-c4ccc(F)cc4F)c3)[nH]c2c1` is ____.
a: 9.8 µM

q: Request: `COCCS(=O)(=O)Nc1ccc2sc(C(=O)Nc3cc(Cl)cc(C(C)(C)c4cc(OC(C)C)cc(OC(F)(F)F)c4)c3)cc2c1`
a: 0.035 µM

q: Request: `O=C(Nc1cc(-c2ccc(F)cc2F)ccn1)c1cc2ccc(NS(=O)(=O)C3CC3)cc2[nH]1`
a: 5.9 µM

q: Request: `CC(=O)c1cc(NC(=O)c2cc3ccc(NS(C)(=O)=O)cc3[nH]2)cc(-c2ccc(F)cc2F)c1`
a: 4.9 µM

q: Request: `CS(=O)(=O)Nc1ccc2sc(C(=O)Nc3cc(Cl)cc(-c4ccc(F)cc4F)c3)c(O)c2c1`
a: > 1.1 µM

q: Request: `CS(=O)(=O)Nc1cc2cc(C(=O)Nc3cc(Cl)cc(Oc4ccc(F)c(F)c4)c3)sc2cc1Cl`
a: 0.036 µM

q: Request: `CS(=O)(=O)Nc1ccc2sc(C(=O)Nc3cc(Cl)cc(-c4ccsc4)c3)cc2c1`
a: 0.17 µM

q: Request: `COc1ccc(C(F)(F)F)c(-c2cccc(NC(=O)c3cc4ccc(NS(C)(=O)=O)cc4[nH]3)c2)c1`
a: > 10 µM

q: Request: `CC(C)(c1cc(Br)cc(NC(=O)c2cc3ccc(NS(C)(=O)=O)cc3[nH]2)c1)c1cccc(OCC(N)=O)c1`
a: 9.6 µM

q: Request: `COc1cc(OC(F)(F)F)cc(-c2cc(Cl)cc(NC(=O)c3cc4cc(NS(C)(=O)=O)ccc4s3)c2)c1`
a: 0.48 µM

q: Request: `CC(C)Oc1cc(OC(F)(F)F)cc(C(C)(C)c2cc(Cl)cc(NC(=O)c3cc4c(N5CCOCC5)c(NS(C)(=O)=O)ccc4s3)c2)c1`
a: > 1.1 µM

q: Request: `CC(C)COc1cc(OC(F)(F)F)cc(C(C)(C)c2cc(Cl)cc(NC(=O)c3cc4cc(NS(C)(=O)=O)ccc4s3)c2)c1`
a: 0.034 µM

q: Request: `CC(C)(c1cccc(NC(=O)c2cc3ccc(NS(C)(=O)=O)cc3[nH]2)c1)c1ccc(F)cc1F`
a: 1.8 µM

q: Request: `C#Cc1cc(NC(=O)c2cc3cc(NS(C)(=O)=O)ccc3s2)cc(C(C)(C)c2ccc(F)cc2)c1`
a: 0.31 µM

q: Request: `COc1sccc1C(C)(C)c1cc(Cl)cc(NC(=O)c2cc3cc(NS(C)(=O)=O)ccc3s2)c1`
a: 0.071 µM

q: Request: `Cc1nc2ccc(S(=O)(=O)c3cccc(NC(=O)c4cc5ccc(NS(C)(=O)=O)cc5[nH]4)c3)cc2s1`
a: > 10 µM

q: Request: `CCCOc1cc(OC(F)(F)F)cc(C(C)(C)c2cc(Cl)cc(NC(=O)c3cc4cc(NS(C)(=O)=O)ccc4s3)c2)c1`
a: 0.033 µM

q: Request: `COC(=O)c1ccc(Cl)c(-c2cccc(NC(=O)c3cc4ccc([N+](=O)[O-])cc4[nH]3)c2)c1`
a: > 10 µM

q: Request: `CS(=O)(=O)Nc1ccc2cc(C(=O)Nc3cc(-c4ccc(F)cc4F)c4cn[nH]c4c3)[nH]c2c1`
a: 9.2 µM

q: Request: `CS(=O)(=O)Nc1ccc2cc(C(=O)Nc3cccc(-c4ccc(F)cc4F)c3)sc2c1`
a: 4 µM

q: Request: `CC(C)(c1cc(Cl)cc(NC(=O)c2cc3cc(NS(C)(=O)=O)c(Cl)cc3s2)c1)c1ccc(Cl)s1`
a: 0.016 µM

q: Request: `CCOc1cc(OC(F)(F)F)cc(C(C)(C)c2cc(Cl)cc(NC(=O)c3cc4cc(NS(C)(=O)=O)ccc4s3)c2)c1`
a: 0.032 µM

q: Request: `CC(C)Oc1cc(CN2CCNCC2)cc(C(C)(C)c2cc(Br)cc(NC(=O)c3cc4cc(NS(C)(=O)=O)ccc4s3)c2)c1`
a: 6.5 µM

q: Request: `CS(=O)(=O)Nc1cc2cc(C(=O)Nc3cc(Cl)cc(Oc4cccc(OC(F)(F)F)c4)c3)sc2cc1Cl`
a: 0.008 µM

q: Request: `CS(=O)(=O)Nc1ccc2cc(C(=O)Nc3cc(-c4cc[nH]n4)cc(-c4ccc(F)cc4F)c3)[nH]c2c1`
a: > 10 µM

q: Request: `CC(C)(c1ccccc1)c1cc(Cl)cc(NC(=O)c2cc3cc(NS(C)(=O)=O)ccc3s2)c1`
a: 0.1 µM

q: Request: `CC(C)(c1cccc(NC(=O)c2cc3ccc(N(CC(N)=O)S(C)(=O)=O)cc3[nH]2)c1)c1cc(OCC(N)=O)cc(OC(F)(F)F)c1`
a: > 10 µM

q: Request: `CS(=O)(=O)Nc1ccc2cc(C(=O)Nc3cc(CC#N)cc(-c4ccc(F)cc4F)c3)[nH]c2c1`
a: 2.4 µM
